Test system: INSR
condition-description: concentration: 1 μM, replicates: in singlicate; n = 1;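 note: KINOMEscan kinase panel screen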
assay-readout: %Inh (%)
State just the number; it will be interpreted in %.

CSc1ccc(-c2nc3n(c2-c2ccncc2)CCC3)cc1: 5
O=C(Nc1n[nH]c2nc(-c3cccs3)c(Br)cc12)C1CCCC1: 2

Tell me its %Inh given `CS(=O)(=O)CCNCc1nc(-c2ccc3ncnc(Nc4ccc5c(cnn5Cc5ccccc5)c4)c3c2)cs1.Cl.Cl` as the entry.
0

Tell me its %Inh given `Cn1cncc1-c1cc2c(Nc3ccc(OCc4ccccc4)cc3)ncnc2cn1` as the entry.
2

Tell me its %Inh given `Nc1nccc(-c2c(-c3ccc(F)cc3)ncn2C2CCN(Cc3ccccc3)CC2)n1` as the entry.
0

###

Tested on: ROCK2
condition-description: concentration: 1 μM, replicates: in singlicate; n = 1
assay-readout: %Inh (%)
State just the number; it will be interpreted in %.

Example results:
Cc1ccc(NC(=O)c2ccc(Cl)cc2)cc1-c1ccc(C(=O)Nc2ccncc2)cc1: 17
COc1ccc(Nc2nccc(-c3ccc(NC(=O)c4cc5cc(F)ccc5[nH]4)cc3)n2)cc1: 10
CC(=O)c1c(C)c2cnc(Nc3ccc(N4CCNCC4)cn3)nc2n(C2CCCC2)c1=O: 0
CNCc1ccc2nc(NC(=O)c3ccc(C(C)(C)C)cc3)cn2c1: 13
CNc1nc(-c2ccc3c(N)n[nH]c3c2)cc(N2C[C@@H](C(=O)Nc3ccccc3)CC[C@H]2C)n1: 61

Tell me its %Inh given `Fc1ccc(-c2nc3n(c2-c2ccncc2)CCS3)cc1` as the entry.
0

Tell me its %Inh given `Cc1ccc(NC(=O)Nc2ccc(Cl)c(C(F)(F)F)c2)cc1-c1ccc(C(=O)Nc2ccncc2)cc1` as the entry.
0

Tell me its %Inh given Cn1cncc1C(=O)NC1CCN(c2ccnc(Nc3ccc(F)cc3)n2)C1 (centres unmarked) as the entry.
19

###

Tested on: MYLK
condition-description: concentration: 1 μM, replicates: in singlicate; n = 1
Measured %Inh, listed per entry for reference.
State just the number; it will be interpreted in %.

CC(C)c1cc(-c2ccc3c(N)n[nH]c3c2)nc(N)n1 [GSK2250882]: 26
c1ccc(-c2ccnc3[nH]ccc23)cc1 [SB-693578]: 12
Nc1nccc(-c2c(-c3ccc(F)cc3)ncn2C2CCN(Cc3ccccc3)CC2)n1 [SB-219980]: 0
CC(C)c1ccc(O)cc1Nc1ccnc2ccc(C(F)(F)F)cc12 [GW482059]: 3

Then this compound:
Provide %Inh, recorded with MYLK, of CCCCc1nn2ncccc2c1-c1ccnc(NC2CC2)n1 [GW684374]
0

###

Tested on: TLK2
condition-description: concentration: 1 μM, replicates: in singlicate; n = 1
Measured %Inh, listed per entry for reference.
State just the number; it will be interpreted in %.

c1ccc(-c2ccnc3[nH]ccc23)cc1: 0
O=C(Nc1n[nH]c2nc(-c3cccs3)c(Br)cc12)C1CCCC1: 0
CCCCc1nn2ncccc2c1-c1ccnc(NC2CC2)n1: 7

Tell me its %Inh given `CS(=O)(=O)CCNCc1nc(-c2ccc3ncnc(Nc4ccc5c(cnn5Cc5ccccc5)c4)c3c2)cs1.Cl.Cl` as the entry.
0

Tell me its %Inh given `CNc1nc(-c2ccc3c(N)n[nH]c3c2)cc(N2C[C@@H](C(=O)Nc3ccccc3)CC[C@H]2C)n1` as the entry.
0
